molecular target: TAAR5 (Homo sapiens, UniProt O14804); test: Dose responses on TAAR5 in luciferase assay (antagonist dose-dependent inhibition with TMA at EC80; TMA dose response with antagonist at IC10, IC30, IC50); type: cell-based; parameters: TAAR open reading frames were amplified from pooled human genomic DNA using Phusion polymerase and subcloned into a pCI expression vector; Rho tag (first 20 residues of human rhodopsin); expressed in transfected cells; host or cells: Hana3A cells; conditions: TAAR5 luciferase, vs TMA; middle of the three concentrations in FIG. 2
QUANTITY KIND: IC30 concentration of antagonist (µM)
Return type: number; implicit unit µM.

Query: # query: IC30 concentration of antagonist | item C/C=C/c1ccc(OC(=O)Cc2ccccc2)c(OC)c1 [Isoeugenyl phenylacetate] | system: TAAR5 (Homo sapiens, UniProt O14804)
Result: 316.22

Query: # query: IC30 concentration of antagonist | item Cc1occc1SSc1ccoc1C [Bis(2-Methyl-3-furyl) disulfide] | system: TAAR5 (Homo sapiens, UniProt O14804)
Result: 77.62

Query: # query: IC30 concentration of antagonist | item CCCCCC/C=C/CO [Trans-2-Nonen-1-ol] | system: TAAR5 (Homo sapiens, UniProt O14804)
Result: 316.22

Query: # query: IC30 concentration of antagonist | item O=C(OCCc1ccccc1)c1ccccc1 [Phenethyl benzoate] | system: TAAR5 (Homo sapiens, UniProt O14804)
Result: 251.19

* * *

target: TAAR5 (Homo sapiens, UniProt O14804); test: Antagonist screen of odor library on TAAR5 with agonist TMA (Dual-Glo luciferase assay, Hana3A cells); assay type: cell-based; set-up: TAAR open reading frames were amplified from pooled human genomic DNA using Phusion polymerase and subcloned into a pCI expression vector; Rho tag (first 20 residues of human rhodopsin); expressed in transfected cells; host or cells: Hana3A cells; conditions: inhibition of TMA/TAAR5 response; test odor at 30 μM; TMA at EC80; read-out: Percent Inhibition
QUANTITY KIND: inhibition at 30 µM (%)
Return type: number; implicit unit %.

Query: Please report the recorded inhibition at 30 µM for CC(C)=CCC/C(C)=C/CO [geraniol] .
Result: 81.3

Query: Please report the recorded inhibition at 30 µM for CC(C)COC(=O)c1ccccc1 [Isobutyl benzoate] .
Result: 63.3

Query: Please report the recorded inhibition at 30 µM for CC(C)CCCC(C)CCO (centres unmarked) [3,7-Dimethyl-1-octanol] .
Result: 57.1

Query: Please report the recorded inhibition at 30 µM for CCCCCCCCCCCC(=O)O [Lauric acid] .
Result: 86

Query: Please report the recorded inhibition at 30 µM for CCCCCC/C=C/C(C)=O [3-Decen-2-one] .
Result: 72.5

* * *

For each of the compounds below, state its inhibition at 30 µM.
target: TAAR5 (Homo sapiens); test: Antagonist screen of odor library on TAAR5 with agonist TMA (Dual-Glo luciferase assay, Hana3A cells); format: cell-based; set-up: TAAR open reading frames were amplified from pooled human genomic DNA using Phusion polymerase and subcloned into a pCI expression vector; Rho tag (first 20 residues of human rhodopsin); expressed in transfected cells; host or cells: Hana3A cells; conditions: inhibition of TMA/TAAR5 response; test odor at 30 μM; TMA at EC80; read-out: Percent Inhibition
Return type: number; implicit unit %.

Query: Please report the recorded inhibition at 30 µM for CCCCCCCCCCCCCCO [1-Tetradecanol] .
Result: 54.1

Query: Please report the recorded inhibition at 30 µM for C/C=C/c1ccc(OC(=O)Cc2ccccc2)c(OC)c1 [Isoeugenyl phenylacetate] .
Result: 89.1

Query: Please report the recorded inhibition at 30 µM for CCc1occc(=O)c1O [ethyl maltol, 2-Ethyl-3-hydroxy-4H-pyran-4-one] .
Result: 72.5

Query: Please report the recorded inhibition at 30 µM for CC/C=C\CCC=O [cis-4-Heptenal] .
Result: 61.5

Query: Please report the recorded inhibition at 30 µM for COC(=O)c1ccccc1/N=C/CC(C)CCCC(C)(C)O (centres unmarked) [aurantiol] .
Result: 79.6

* * *

biological target: TAAR5 (Homo sapiens, UniProt O14804); experiment: Dose responses on TAAR5 in luciferase assay (antagonist dose-dependent inhibition with TMA at EC80; TMA dose response with antagonist at IC10, IC30, IC50); type: cell-based; parameters: TAAR open reading frames were amplified from pooled human genomic DNA using Phusion polymerase and subcloned into a pCI expression vector; Rho tag (first 20 residues of human rhodopsin); expressed in transfected cells; host or cells: Hana3A cells
QUANTITY KIND: IC50

Query: # query: IC50 | item C/C=C/c1ccc(OC(=O)Cc2ccccc2)c(OC)c1 [Isoeugenyl phenylacetate] | system: TAAR5 (Homo sapiens, UniProt O14804)
Result: 703 µM

* * *

Target: TAAR5 (Homo sapiens)
Sequence (O14804 1-337): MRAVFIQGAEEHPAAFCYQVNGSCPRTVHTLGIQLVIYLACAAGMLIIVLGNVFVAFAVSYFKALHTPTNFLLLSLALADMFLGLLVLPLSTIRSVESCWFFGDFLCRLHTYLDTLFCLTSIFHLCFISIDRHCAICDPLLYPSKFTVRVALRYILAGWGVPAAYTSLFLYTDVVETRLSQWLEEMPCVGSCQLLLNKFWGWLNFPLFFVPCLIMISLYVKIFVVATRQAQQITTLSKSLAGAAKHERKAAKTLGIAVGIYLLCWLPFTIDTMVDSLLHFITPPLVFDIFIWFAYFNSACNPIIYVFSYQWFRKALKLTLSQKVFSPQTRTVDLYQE
Experiment: Dose responses on TAAR5 in luciferase assay (antagonist dose-dependent inhibition with TMA at EC80; TMA dose response with antagonist at IC10, IC30, IC50)
Type: cell-based
Set-up: TAAR open reading frames were amplified from pooled human genomic DNA using Phusion polymerase and subcloned into a pCI expression vector; Rho tag (first 20 residues of human rhodopsin); expressed in transfected cells; host or cells: Hana3A cells
Settings: TAAR5 luciferase, vs TMA; lowest of the three concentrations in FIG. 2
QUANTITY KIND: IC10 concentration of antagonist (µM)
Return type: number; implicit unit µM.

Query: Please report the recorded IC10 concentration of antagonist for CCCCCC/C=C/CO [Trans-2-Nonen-1-ol] .
Result: 100

Query: Please report the recorded IC10 concentration of antagonist for O=C(OCCc1ccccc1)c1ccccc1 [Phenethyl benzoate] .
Result: 50.11

Query: Please report the recorded IC10 concentration of antagonist for C/C=C/c1ccc(OC(=O)Cc2ccccc2)c(OC)c1 [Isoeugenyl phenylacetate] .
Result: 100

Query: Please report the recorded IC10 concentration of antagonist for Cc1occc1SSc1ccoc1C [Bis(2-Methyl-3-furyl) disulfide] .
Result: 31.62

* * *

target: TAAR5 (Homo sapiens); assay: Antagonist screen of odor library on TAAR5 with agonist TMA (Dual-Glo luciferase assay, Hana3A cells); assay type: cell-based; parameters: TAAR open reading frames were amplified from pooled human genomic DNA using Phusion polymerase and subcloned into a pCI expression vector; Rho tag (first 20 residues of human rhodopsin); expressed in transfected cells; host or cells: Hana3A cells; conditions: inhibition of TMA/TAAR5 response; test odor at 30 μM; TMA at EC80; read-out: Percent Inhibition
Label rule, in plain words: inhibition at 30 µM of 70% and up is y, under 70% is n.

Query: Would you say Cc1ccc(C(C)C)cc1O shows inhibition at 30 µM at minimum 70%?
Result: n

Query: Would you say c1ccc(CSSCc2ccccc2)cc1 [Benzyl disulfide] shows inhibition at 30 µM at minimum 70%?
Result: y

Query: Would you say C[C@@]12C=CC[C@H]1[C@@H]1CCC3=CC(=O)CC[C@]3(C)[C@H]1CC2 shows inhibition at 30 µM at minimum 70%?
Result: y

Query: Would you say O=C(OCc1ccccc1)c1ccccc1O [Benzyl salicylate] shows inhibition at 30 µM at minimum 70%?
Result: y

Query: Would you say C=CCN=C=S [Allyl isothiocyanate] shows inhibition at 30 µM at minimum 70%?
Result: y

Query: Would you say O=C1CCCCCCC/C=C/CCCCCCO1 [Isoambrettolide] shows inhibition at 30 µM at minimum 70%?
Result: y

Query: Would you say CCCCCCC/C=C/C=O shows inhibition at 30 µM at minimum 70%?
Result: n

Query: Would you say O=C(Cc1ccccc1)OCc1ccccc1 [Benzyl phenylacetate] shows inhibition at 30 µM at minimum 70%?
Result: y

Query: Would you say CC(C=O)Cc1ccc2c(c1)OCO2 (centres unmarked) shows inhibition at 30 µM at minimum 70%?
Result: n

Query: Would you say CSCCC=O shows inhibition at 30 µM at minimum 70%?
Result: n

Query: Would you say CCCCCC(C=O)=Cc1ccccc1 shows inhibition at 30 µM at minimum 70%?
Result: y

Query: Would you say OCc1ccccc1 shows inhibition at 30 µM at minimum 70%?
Result: n

Query: Would you say CCCCCC/C=C/CO [Trans-2-Nonen-1-ol] shows inhibition at 30 µM at minimum 70%?
Result: y

Query: Would you say SCc1ccccc1 shows inhibition at 30 µM at minimum 70%?
Result: y

Query: Would you say O=C(OCCc1ccccc1)c1ccccc1 [Phenethyl benzoate] shows inhibition at 30 µM at minimum 70%?
Result: y

Query: Would you say COc1ccc2cc(CCC(C)=O)ccc2c1 shows inhibition at 30 µM at minimum 70%?
Result: y

Query: Would you say O=C(OCCc1ccccc1)c1ccco1 [Phenethyl 2-furoate] shows inhibition at 30 µM at minimum 70%?
Result: n

Query: Would you say Nc1ccccc1C(=O)OCCc1ccccc1 [Phenethyl anthranilate] shows inhibition at 30 µM at minimum 70%?
Result: y

Query: Would you say O=C1CCCCCCCCCCCCCCO1 [Thibetolide] shows inhibition at 30 µM at minimum 70%?
Result: y
